Each recorded value in this set is attributed to patent US20250312499A1.

Biological target: human kisspeptin receptor (KISS1R) (human) (UniProt Q969F8)
Sequence (Q969F8 whole entry): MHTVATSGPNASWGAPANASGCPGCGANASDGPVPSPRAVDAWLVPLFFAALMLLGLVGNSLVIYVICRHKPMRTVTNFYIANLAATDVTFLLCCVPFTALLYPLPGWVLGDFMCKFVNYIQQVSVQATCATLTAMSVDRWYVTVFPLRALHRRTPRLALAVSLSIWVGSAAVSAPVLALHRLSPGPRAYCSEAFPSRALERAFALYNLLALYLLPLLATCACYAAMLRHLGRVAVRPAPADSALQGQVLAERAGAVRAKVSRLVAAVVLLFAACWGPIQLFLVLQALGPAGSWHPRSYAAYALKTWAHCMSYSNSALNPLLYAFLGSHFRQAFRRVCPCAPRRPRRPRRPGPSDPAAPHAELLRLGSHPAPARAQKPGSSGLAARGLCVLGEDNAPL
Experiment: radioligand competition, hKISS1R membranes; legend: C is >100 nM
Numbered stars: 1 amine (or outer) side, 2 acyl side, 3 side chain; on linkers, the order of the positions; unused ones are H or OH. Square brackets hold non-standard residues; d marks the D form. * marks the point of attachment. X7 = 4‑amino‑1‑(N-methylcarbamimidoyl)piperidine‑4‑carboxylic acid, CNC(=N)N1CCC(N[*:1])(C(=O)[*:2])CC1; DOTA = O=C(O)CN1CCN(CC(=O)O)CCN(CC(=O)*)CCN(CC(=O)O)CC1; d2Nal = N[C@H](Cc1ccc2ccccc2c1)C(=O)O; Ahx = NCCCCCC(=O)O; azaGly = NNC(=O)O
propertyName: Ki

*Q* Value lookup for Ki; key = {DOTA-Ahx}-[dY][d2Nal]NTF[azaGly]L[X7][dW]-NH2 (SMILES CNC(=N)N1CCC(NC(=O)[C@H](CC(C)C)NC(=O)NNC(=O)[C@H](Cc2ccccc2)NC(=O)[C@@H](NC(=O)[C@H](CC(N)=O)NC(=O)[C@@H](Cc2ccc3ccccc3c2)NC(=O)[C@@H](Cc2ccc(O)cc2)NC(=O)CCCCCNC(=O)CN2CCN(CC(=O)O)CCN(CC(=O)O)CCN(CC(=O)O)CC2)[C@@H](C)O)(C(=O)N[C@H](Cc2c[nH]c3ccccc23)C(N)=O)CC1) [Compound 319]
*A* > 100 nM
